Assay: Biodistribution of 99mTc complexes in mice
Type: in vivo, Balb/c mice
Conditions: 1 min
Examples of molecules with documented biodistribution kidney follow.
Write the answer as a number in % Injected dose, unit excluded.

These recorded examples may help you get a feel for the data.
[
  {
    "Molecule": "O=C(O)CN(CCN(CC(=O)O)CC(=O)Nc1ccccc1O)CC(=O)Nc1ccccc1O [Compound 1]",
    "Unit abbrev": "% Injected dose",
    "biodistribution kidney": 11.78
  },
  {
    "Molecule": "O=C(O)CN(CCN(CC(=O)O)CC(=O)Nc1ccc(Cl)cc1O)CC(=O)Nc1ccc(Cl)cc1O [Compound 2]",
    "Unit abbrev": "% Injected dose",
    "biodistribution kidney": 8.04
  },
  {
    "Molecule": "CC(C)(C)c1ccc(O)c(NC(=O)CN(CCN(CC(=O)O)CC(=O)Nc2cc(C(C)(C)C)ccc2O)CC(=O)O)c1 [Compound 4]",
    "Unit abbrev": "% Injected dose",
    "biodistribution kidney": 7.83
  }
]

Nc1ccc(O)c(NC(=O)CN(CCN(CC(=O)O)CC(=O)Nc2cc(N)ccc2O)CC(=O)O)c1 [Compound 5] yielded biodistribution kidney of 9.08

Cc1cc(C)c(O)c(NC(=O)CN(CCN(CC(=O)O)CC(=O)Nc2cc(C)cc(C)c2O)CC(=O)O)c1 [Compound 6] yielded biodistribution kidney of 7.57

====

Assay: Biodistribution of 99mTc complexes in mice
Format: in vivo, Balb/c mice
Conditions: 3 min
Lab note: compare biodistribution skin with 10 % Injected dose, writing 1 if less and -1 if equal or more.

[
  {
    "Test smiles": "Cc1cc(C)c(O)c(NC(=O)CN(CCN(CC(=O)O)CC(=O)Nc2cc(C)cc(C)c2O)CC(=O)O)c1",
    "Label class": 1
  }
]

*Q* Check if biodistribution skin falls below 10 % Injected dose for `Nc1ccc(O)c(NC(=O)CN(CCN(CC(=O)O)CC(=O)Nc2cc(N)ccc2O)CC(=O)O)c1` .
*A* -1

*Q* Check if biodistribution skin falls below 10 % Injected dose for `O=C(O)CN(CCN(CC(=O)O)CC(=O)Nc1ccccc1O)CC(=O)Nc1ccccc1O` .
*A* -1

*Q* Check if biodistribution skin falls below 10 % Injected dose for `CC(C)(C)c1ccc(O)c(NC(=O)CN(CCN(CC(=O)O)CC(=O)Nc2cc(C(C)(C)C)ccc2O)CC(=O)O)c1` .
*A* 1

*Q* Check if biodistribution skin falls below 10 % Injected dose for `O=C(O)CN(CCN(CC(=O)O)CC(=O)Nc1ccc(Cl)cc1O)CC(=O)Nc1ccc(Cl)cc1O` .
*A* -1

====

Assay: Biodistribution of 99mTc complexes in rats
Assay type: in vivo, Australian Albino Wistar Rats
Conditions: rat, thymus, rats, 30 sec, read-out: biodistribution thymus
Examples of compounds with documented tissue uptake at 0.5 min follow.
Write the answer as a number in %ID/g, unit excluded.

CC(C)(C)c1ccc(O)c(NC(=O)CN(CCN(CC(=O)O)CC(=O)Nc2cc(C(C)(C)C)ccc2O)CC(=O)O)c1 [Compound 4] yielded tissue uptake at 0.5 min of 0.66

O=C(O)CN(CCN(CC(=O)O)CC(=O)Nc1cc([N+](=O)[O-])ccc1O)CC(=O)Nc1cc([N+](=O)[O-])ccc1O [Compound 3] yielded tissue uptake at 0.5 min of 0.38

O=C(O)CN(CCN(CC(=O)O)CC(=O)Nc1ccc(Cl)cc1O)CC(=O)Nc1ccc(Cl)cc1O [Compound 2] yielded tissue uptake at 0.5 min of 0.39

O=C(O)CN(CCN(CC(=O)O)CC(=O)Nc1ccccc1O)CC(=O)Nc1ccccc1O [Compound 1] yielded tissue uptake at 0.5 min of 0.38

Nc1ccc(O)c(NC(=O)CN(CCN(CC(=O)O)CC(=O)Nc2cc(N)ccc2O)CC(=O)O)c1 [Compound 5] yielded tissue uptake at 0.5 min of 0.63

====

Assay: Biodistribution of 99mTc complexes in rats
Format: in vivo, Australian Albino Wistar Rats
Settings: rat, liver, rats, 30 sec, read-out: biodistribution liver
Lab note: compare tissue uptake at 0.5 min with 5 %ID/g, writing true if less and false if equal or more.

[
  {
    "Compound": "Nc1ccc(O)c(NC(=O)CN(CCN(CC(=O)O)CC(=O)Nc2cc(N)ccc2O)CC(=O)O)c1 [Compound 5]",
    "Label class": "true"
  }
]

With those in mind, consider the next compound.
*Q* Check if tissue uptake at 0.5 min falls below 5 %ID/g for O=C(O)CN(CCN(CC(=O)O)CC(=O)Nc1ccccc1O)CC(=O)Nc1ccccc1O [Compound 1] .
*A* true

====

Examples of molecules with documented biodistribution liver follow.
Test: Biodistribution of 67Ga complexes in mice
Format: in vivo, balb/c mice
Conditions: 5 min
Write the answer as a number in % ID, unit excluded.

[
  {
    "Test smiles": "O=C(O)CN(CCN(CC(=O)O)CC(=O)Nc1ccc(Cl)cc1O)CC(=O)Nc1ccc(Cl)cc1O",
    "Unit abbrev": "% ID",
    "biodistribution liver": 33.09
  },
  {
    "Test smiles": "Cc1cc(C)c(O)c(NC(=O)CN(CCN(CC(=O)O)CC(=O)Nc2cc(C)cc(C)c2O)CC(=O)O)c1",
    "Unit abbrev": "% ID",
    "biodistribution liver": 30.21
  },
  {
    "Test smiles": "CC(C)(C)c1ccc(O)c(NC(=O)CN(CCN(CC(=O)O)CC(=O)Nc2cc(C(C)(C)C)ccc2O)CC(=O)O)c1",
    "Unit abbrev": "% ID",
    "biodistribution liver": 39.61
  }
]

Let's switch to this molecule now.
`O=C(O)CN(CCN(CC(=O)O)CC(=O)Nc1ccccc1O)CC(=O)Nc1ccccc1O` yielded biodistribution liver of 25.79

====

Assay: Biodistribution of 99mTc complexes in rats
Format: in vivo, Australian Albino Wistar Rats
Details: rat, stomach, rats, 3 min, read-out: biodistribution stomach
Examples of molecules with documented tissue uptake at 0.05 h follow.

[
  {
    "Molecule": "O=C(O)CN(CCN(CC(=O)O)CC(=O)Nc1ccc(Cl)cc1O)CC(=O)Nc1ccc(Cl)cc1O [Compound 2]",
    "Val": "2.08 %ID/g"
  },
  {
    "Molecule": "Nc1ccc(O)c(NC(=O)CN(CCN(CC(=O)O)CC(=O)Nc2cc(N)ccc2O)CC(=O)O)c1 [Compound 5]",
    "Val": "0.36 %ID/g"
  },
  {
    "Molecule": "CC(C)(C)c1ccc(O)c(NC(=O)CN(CCN(CC(=O)O)CC(=O)Nc2cc(C(C)(C)C)ccc2O)CC(=O)O)c1 [Compound 4]",
    "Val": "3.09 %ID/g"
  }
]

Let's switch to this molecule now.
O=C(O)CN(CCN(CC(=O)O)CC(=O)Nc1ccccc1O)CC(=O)Nc1ccccc1O [Compound 1] yielded tissue uptake at 0.05 h of 0.32 %ID/g

====

Assay: Biodistribution of 99mTc complexes in mice
Format: in vivo, Balb/c mice
Conditions: 5 min
Reported endpoint: biodistribution heart

These recorded examples may help you get a feel for the data.
[
  {
    "Compound": "CC(C)(C)c1ccc(O)c(NC(=O)CN(CCN(CC(=O)O)CC(=O)Nc2cc(C(C)(C)C)ccc2O)CC(=O)O)c1 [Compound 4]",
    "Reported endpoint": "biodistribution heart",
    "Val": "0.16 % Injected dose"
  },
  {
    "Compound": "O=C(O)CN(CCN(CC(=O)O)CC(=O)Nc1ccc(Cl)cc1O)CC(=O)Nc1ccc(Cl)cc1O [Compound 2]",
    "Reported endpoint": "biodistribution heart",
    "Val": "0.22 % Injected dose"
  },
  {
    "Compound": "Cc1cc(C)c(O)c(NC(=O)CN(CCN(CC(=O)O)CC(=O)Nc2cc(C)cc(C)c2O)CC(=O)O)c1 [Compound 6]",
    "Reported endpoint": "biodistribution heart",
    "Val": "0.16 % Injected dose"
  }
]

Let's switch to this compound now.
O=C(O)CN(CCN(CC(=O)O)CC(=O)Nc1ccccc1O)CC(=O)Nc1ccccc1O [Compound 1] yielded biodistribution heart of 0.21 % Injected dose

====

Experiment: Biodistribution of 99mTc complexes in mice
Assay type: in vivo, Balb/c mice
Conditions: 30 min
Examples of molecules with documented biodistribution muscle follow.
Quick note: unit goes after the number.

These recorded examples may help you get a feel for the data.
[
  {
    "Test smiles": "Nc1ccc(O)c(NC(=O)CN(CCN(CC(=O)O)CC(=O)Nc2cc(N)ccc2O)CC(=O)O)c1",
    "biodistribution muscle": "23.84 % Injected dose"
  },
  {
    "Test smiles": "O=C(O)CN(CCN(CC(=O)O)CC(=O)Nc1ccc(Cl)cc1O)CC(=O)Nc1ccc(Cl)cc1O",
    "biodistribution muscle": "5.48 % Injected dose"
  },
  {
    "Test smiles": "O=C(O)CN(CCN(CC(=O)O)CC(=O)Nc1ccccc1O)CC(=O)Nc1ccccc1O",
    "biodistribution muscle": "4.98 % Injected dose"
  },
  {
    "Test smiles": "CC(C)(C)c1ccc(O)c(NC(=O)CN(CCN(CC(=O)O)CC(=O)Nc2cc(C(C)(C)C)ccc2O)CC(=O)O)c1",
    "biodistribution muscle": "3.35 % Injected dose"
  }
]

Let's switch to this molecule now.
`Cc1cc(C)c(O)c(NC(=O)CN(CCN(CC(=O)O)CC(=O)Nc2cc(C)cc(C)c2O)CC(=O)O)c1` yielded biodistribution muscle of 6.92 % Injected dose
